Measure: melting point

>  <Molecule>
O=C(Cc1ccc(O)cc1O)Nc1ccc(O)cc1O

>  <Measure>
melting point

>  <Result>
75 to 78 °C

$$$$
>  <Molecule>
O=C(Nc1cc(O)ccc1O)N(Cc1cc(O)ccc1O)c1ccc(O)cc1

>  <Measure>
melting point

>  <Result>
114 to 115 °C

$$$$
>  <Molecule>
O=C(Nc1ccc(O)c(O)c1)Nc1cc(O)ccc1O

>  <Measure>
melting point

>  <Result>
141 to 143 °C

$$$$
>  <Molecule>
O=C(Cc1ccc(O)cc1O)Nc1ccc(O)cc1

>  <Measure>
melting point

>  <Result>
186 to 189 °C

$$$$
>  <Molecule>
O=C(Cc1cc(O)ccc1O)Nc1ccc(O)cc1O

>  <Measure>
melting point

>  <Result>
178 to 180 °C

$$$$
>  <Molecule>
O=C(Cc1cc(O)ccc1O)N(Cc1cc(O)ccc1O)c1ccc(O)cc1

>  <Measure>
melting point

>  <Result>
114 to 116 °C

$$$$
>  <Molecule>
O=C(Nc1ccc(O)cc1)Nc1ccc(O)cc1 [Compound 15, N,N′-bis(4-Hydroxyphenyl)urea]

>  <Measure>
melting point

>  <Result>
245 °C

$$$$

* * *

solubility values, listed per item
# Experimental Protocol: Aqueous thermodynamic solubility in H2O (UV)
# Assay type: physicochemical
# Measurement Conditions: water, thermodynamic from solid

>  <Molecule>
O=C(Cc1ccc(O)c(O)c1)Nc1ccc(O)cc1

>  <solubility>
3100 µg/mL

$$$$
>  <Molecule>
O=C(Nc1ccc(O)cc1)Nc1ccc(O)cc1 [Compound 15, N,N′-bis(4-Hydroxyphenyl)urea]

>  <solubility>
62.6 µg/mL

$$$$
>  <Molecule>
O=C(Cc1ccc(O)cc1O)Nc1ccc(O)cc1

>  <solubility>
4100 µg/mL

$$$$
>  <Molecule>
O=C(Cc1cc(O)ccc1O)Nc1ccc(O)cc1

>  <solubility>
1300 µg/mL

$$$$
>  <Molecule>
O=C(Nc1ccc(O)cc1)N(c1ccc(O)cc1)c1ccc(O)cc1

>  <solubility>
620 µg/mL

$$$$

* * *

# Experimental Protocol: Stability in aqueous media (H2O/acetonitrile 80:20, HPLC-MS)
# Type: physicochemical
# Measurement Conditions: remaining pure compound (HPLC) after two months at room temperature in aqueous solution (+20% acetonitrile)
Here the recorded Aqueous Stability (%) is given for each entry.

>  <Compound>
O=C(Cc1cc(O)ccc1O)Nc1ccc(O)cc1O [Compound 1]

>  <Aqueous Stability (%)>
2

$$$$
>  <Compound>
O=C(Nc1cc(O)ccc1O)Nc1cc(O)ccc1O [Compound 16, N,N′-bis(2,5-Dihydroxyphenyl)urea]

>  <Aqueous Stability (%)>
0

$$$$
>  <Compound>
O=C(Cc1cc(O)ccc1O)N(c1ccc(O)cc1)c1ccc(O)cc1 [Compound 9]

>  <Aqueous Stability (%)>
0

$$$$
>  <Compound>
O=C(Cc1ccc(O)cc1O)Nc1ccc(O)cc1 [Compound 8]

>  <Aqueous Stability (%)>
98

$$$$
>  <Compound>
O=C(Cc1ccc(O)c(O)c1)Nc1ccc(O)cc1 [Compound 7]

>  <Aqueous Stability (%)>
90

$$$$

* * *

# Experimental Protocol: DPPH free radical scavenging assay (RSA)
# Measurement Conditions: compound needed to reach 50% RSA after 10 min; read-out: DPPH PSA IC50 10 min
pIC50: −log10 of the molar value.
Measured pIC50 of individual entries

>  <Sample Smiles>
O=C(Cc1cc(O)ccc1O)Nc1ccc(O)cc1

>  <pIC50>
5.08

$$$$
>  <Sample Smiles>
O=C(Cc1ccc(O)cc1O)Nc1ccc(O)cc1

>  <pIC50>
3.82

$$$$
>  <Sample Smiles>
O=C(Cc1ccc(O)c(O)c1)Nc1ccc(O)cc1

>  <pIC50>
4.62

$$$$
>  <Sample Smiles>
O=C(Nc1ccc(O)cc1)N(c1ccc(O)cc1)c1ccc(O)cc1

>  <pIC50>
4.75

$$$$
